- Measured On: ALK tyrosine kinase receptor (Homo sapiens, UniProt Q9UM73)
- Sequence (Q9UM73 whole entry): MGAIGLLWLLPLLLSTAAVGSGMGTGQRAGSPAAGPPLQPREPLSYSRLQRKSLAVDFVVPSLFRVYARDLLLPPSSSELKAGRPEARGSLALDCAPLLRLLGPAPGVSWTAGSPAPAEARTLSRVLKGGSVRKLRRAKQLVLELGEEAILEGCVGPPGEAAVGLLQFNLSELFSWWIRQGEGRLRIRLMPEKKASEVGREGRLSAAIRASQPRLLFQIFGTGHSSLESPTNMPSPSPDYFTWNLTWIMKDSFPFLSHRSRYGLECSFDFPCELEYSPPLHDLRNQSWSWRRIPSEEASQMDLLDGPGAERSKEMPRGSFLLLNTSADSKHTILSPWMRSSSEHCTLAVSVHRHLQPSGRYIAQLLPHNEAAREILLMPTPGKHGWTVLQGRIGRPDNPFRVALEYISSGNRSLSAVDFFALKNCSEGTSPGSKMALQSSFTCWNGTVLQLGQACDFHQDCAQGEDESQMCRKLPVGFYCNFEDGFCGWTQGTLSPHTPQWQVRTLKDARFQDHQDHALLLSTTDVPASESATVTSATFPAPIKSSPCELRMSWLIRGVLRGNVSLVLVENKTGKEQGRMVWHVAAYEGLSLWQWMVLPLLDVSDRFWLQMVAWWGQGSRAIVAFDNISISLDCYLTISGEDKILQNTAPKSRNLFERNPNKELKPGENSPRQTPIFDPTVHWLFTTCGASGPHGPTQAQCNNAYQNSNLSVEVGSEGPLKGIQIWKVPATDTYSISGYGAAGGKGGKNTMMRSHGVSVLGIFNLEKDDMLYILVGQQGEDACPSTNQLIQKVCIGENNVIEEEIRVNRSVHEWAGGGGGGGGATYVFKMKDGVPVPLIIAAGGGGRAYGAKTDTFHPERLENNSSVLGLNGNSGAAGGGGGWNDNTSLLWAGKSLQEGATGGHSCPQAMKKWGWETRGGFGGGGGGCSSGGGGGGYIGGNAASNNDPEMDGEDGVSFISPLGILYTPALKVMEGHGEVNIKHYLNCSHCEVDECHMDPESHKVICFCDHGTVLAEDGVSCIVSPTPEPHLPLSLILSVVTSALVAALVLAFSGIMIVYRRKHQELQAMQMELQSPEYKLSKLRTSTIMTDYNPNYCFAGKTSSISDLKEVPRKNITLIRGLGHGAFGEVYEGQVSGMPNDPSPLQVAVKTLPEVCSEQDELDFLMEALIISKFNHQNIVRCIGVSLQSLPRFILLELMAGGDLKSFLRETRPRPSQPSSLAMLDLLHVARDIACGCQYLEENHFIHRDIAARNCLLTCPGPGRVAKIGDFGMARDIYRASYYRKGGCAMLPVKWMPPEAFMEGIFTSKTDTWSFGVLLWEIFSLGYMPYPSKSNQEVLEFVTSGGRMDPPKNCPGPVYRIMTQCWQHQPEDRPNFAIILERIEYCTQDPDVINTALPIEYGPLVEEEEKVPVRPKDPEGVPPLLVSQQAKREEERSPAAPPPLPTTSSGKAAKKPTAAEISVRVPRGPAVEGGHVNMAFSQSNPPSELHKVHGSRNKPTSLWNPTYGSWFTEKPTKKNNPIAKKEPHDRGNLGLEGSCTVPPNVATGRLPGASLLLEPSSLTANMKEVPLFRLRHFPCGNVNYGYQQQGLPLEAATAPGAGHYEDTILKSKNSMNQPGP
Endpoint Label: IC50 (nM)
Field format: number, assumed nM, no unit text.

I have this compound here, C[C@H](Nc1nc(Nc2cn(C)cn2)c2cc[nH]c2n1)c1ncc(F)cn1 , and I need its recorded IC50.
50

* * *

- Measured On: Tyrosine-protein kinase JAK3 (Homo sapiens)
- Protocol Details: Inhibition of Jak3 (unknown origin)
Please provide measured pIC50 for the entries that follow.
Please report pIC50 as the negative decimal logarithm of the molar concentration, giving only the number.

Fill in the blank: the reported pIC50 of C[C@H](Nc1nc(Nc2cn(C)cn2)c2cnn(C)c2n1)c1ncc(F)cn1 is ____.
5.84

Given the molecule C[C@H](Nc1nc(Nc2cn(C)cn2)c2ccncc2n1)c1ncc(F)cn1 , what is its reported pIC50?
5.74

Endpoint output: pIC50 of C[C@H](Nc1nc(Nc2cn(C)cn2)c2ccn(C3CC3)c2n1)c1ncc(F)cn1 . Value?
5.61

// lookup pIC50 for C[C@H](Nc1nc(Nc2cn(C)cn2)c2ccn(C)c2n1)c1ncc(F)cn1
5.12

Reported pIC50, molecule C[C@H](Nc1nc(Nc2cn(C)cn2)c2ccccc2n1)c1ncc(F)cn1 : ____
4.83

* * *

For each of the compounds below, state its Vd.
- Protocol Details: Volume of distribution at steady state in Wistar rat at 10 mg/kg, po and 3 mg/kg, iv
- Format: ADME, organism-based
- Test Parameters: in vivo, read-out: Vdss
Entry rule: numbers only, all in L/kg.

Fill in: Vd of CC(Nc1nc(Nc2cn(C)cn2)c2cccnc2n1)c1ncc(F)cn1 (racemic) is ___
2.5

I am curious: what Vd value has been reported for COc1ccc2c(Nc3cn(C)cn3)nc(NC(C)c3ncc(F)cn3)nc2c1 (racemic) ?
6

// lookup Vd for C[C@H](Nc1nc(Nc2cn(C)cn2)c2cnn(C)c2n1)c1ncc(F)cn1
1.8

Vd for C[C@H](Nc1nc(Nc2cn(C)cn2)c2cc[nH]c2n1)c1ncc(F)cn1 ?
2.2

Using the record for Cc1csc2c(Nc3cn(C)cn3)nc(N[C@@H](C)c3ncc(F)cn3)nc12 , report its Vd.
1.2

* * *

The next entries give measured IC50 for Tyrosine-protein kinase JAK2 (Homo sapiens, UniProt O60674).
Express it in nM; write the number only.

What measured IC50 goes with C[C@H](Nc1nc(Nc2cn(C)cn2)c2cnn(C)c2n1)c1ncc(F)cn1 ?
15

Query: IC50; subject: C[C@H](Nc1nc(Nc2cn(C)cn2)c2ccn(C)c2n1)c1ncc(F)cn1
27

Any idea what IC50 was measured for C[C@H](Nc1nc(Nc2cn(C)cn2)c2nccnc2n1)c1ncc(F)cn1 ?
800

* * *

- Measured On: Tyrosine-protein kinase JAK3 (Homo sapiens)
- Sequence (P52333 whole entry): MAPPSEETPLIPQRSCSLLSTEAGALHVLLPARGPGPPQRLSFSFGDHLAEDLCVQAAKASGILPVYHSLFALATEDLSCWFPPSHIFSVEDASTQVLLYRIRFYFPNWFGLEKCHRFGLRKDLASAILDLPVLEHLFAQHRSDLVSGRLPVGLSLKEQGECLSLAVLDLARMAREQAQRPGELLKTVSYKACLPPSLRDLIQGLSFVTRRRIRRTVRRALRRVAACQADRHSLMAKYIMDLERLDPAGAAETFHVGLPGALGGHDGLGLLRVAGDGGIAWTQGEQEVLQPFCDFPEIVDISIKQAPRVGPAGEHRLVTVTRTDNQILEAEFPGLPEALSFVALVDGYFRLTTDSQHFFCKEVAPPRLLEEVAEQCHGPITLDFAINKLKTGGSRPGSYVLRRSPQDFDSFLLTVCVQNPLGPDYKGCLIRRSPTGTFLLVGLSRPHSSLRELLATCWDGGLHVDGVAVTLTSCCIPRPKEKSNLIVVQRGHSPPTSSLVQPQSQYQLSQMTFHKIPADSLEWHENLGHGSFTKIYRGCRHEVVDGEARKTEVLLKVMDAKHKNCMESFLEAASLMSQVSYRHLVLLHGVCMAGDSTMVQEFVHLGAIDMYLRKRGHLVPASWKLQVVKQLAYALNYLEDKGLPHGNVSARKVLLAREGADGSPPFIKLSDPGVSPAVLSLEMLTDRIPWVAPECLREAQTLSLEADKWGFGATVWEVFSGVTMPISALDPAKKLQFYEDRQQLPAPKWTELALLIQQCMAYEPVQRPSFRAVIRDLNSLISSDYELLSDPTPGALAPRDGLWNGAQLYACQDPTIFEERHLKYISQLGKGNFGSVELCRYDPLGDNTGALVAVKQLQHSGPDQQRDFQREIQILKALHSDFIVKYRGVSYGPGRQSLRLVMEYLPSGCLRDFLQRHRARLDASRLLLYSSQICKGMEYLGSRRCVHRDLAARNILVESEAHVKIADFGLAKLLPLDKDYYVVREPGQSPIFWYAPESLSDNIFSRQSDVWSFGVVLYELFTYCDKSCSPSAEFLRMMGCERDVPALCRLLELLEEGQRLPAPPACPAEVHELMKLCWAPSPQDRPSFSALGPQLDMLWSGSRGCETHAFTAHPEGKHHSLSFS
- Protocol Details: Inhibition of human JAK3
Endpoint Label: IC50 (nM)
State just the number; it will be interpreted in nM.

Returns the measured IC50 for the input molecule. Input: C[C@H](Nc1nc(Nc2cn(C)cn2)c2cc[nH]c2n1)c1ncc(F)cn1
35
